Hey, just so you know, these numbers are from PubChem BioAssay.

Assay: A549 lung cancer cell viability effects, profiling panel, resazurin fluorescence, 24 h, PK04 Diversity Set (AID 1171); also: test concentration not given here
Settings: higher = more signal, called active from +8 up or from −8 down
readout type: z-score
Just the number, please, no unit after it.

These recorded examples may help you get a feel for the data.
molecule: [N-]=[N+]=NCc1ccccc1[C@H]1OC(c2ccc(OCCCO)cc2)=N[C@@]1(CCS(=O)(=O)c1ccccc1)C(=O)N1CCCCC1
z-score: -0.743

molecule: O=C(N1CCCCC1)[C@@]1(CCS(=O)(=O)c2ccccc2)COC(c2ccc(OCCCO)cc2)=N1
z-score: 0.327

molecule: Cc1cc(C)cc(N2C(=O)CSC2c2cccc([N+](=O)[O-])c2)c1 (centres undefined)
z-score: -0.661

# next molecule below
Quick one: z-score of `CCOC(=O)C[C@H]1[C@H](OC(=O)Cc2ccc3c(c2)OCO3)[C@@H](NC(=O)Cc2ccc(OC)cc2)c2cc(OCCCO)ccc2N1C(=O)c1ccc2ccccc2n1` ?
-0.23

----------
Molecular target: Torsin-1A-interacting protein 2 (Homo sapiens) (UniProt Q8NFQ8)
Sequence (Q8NFQ8 whole entry, looked up): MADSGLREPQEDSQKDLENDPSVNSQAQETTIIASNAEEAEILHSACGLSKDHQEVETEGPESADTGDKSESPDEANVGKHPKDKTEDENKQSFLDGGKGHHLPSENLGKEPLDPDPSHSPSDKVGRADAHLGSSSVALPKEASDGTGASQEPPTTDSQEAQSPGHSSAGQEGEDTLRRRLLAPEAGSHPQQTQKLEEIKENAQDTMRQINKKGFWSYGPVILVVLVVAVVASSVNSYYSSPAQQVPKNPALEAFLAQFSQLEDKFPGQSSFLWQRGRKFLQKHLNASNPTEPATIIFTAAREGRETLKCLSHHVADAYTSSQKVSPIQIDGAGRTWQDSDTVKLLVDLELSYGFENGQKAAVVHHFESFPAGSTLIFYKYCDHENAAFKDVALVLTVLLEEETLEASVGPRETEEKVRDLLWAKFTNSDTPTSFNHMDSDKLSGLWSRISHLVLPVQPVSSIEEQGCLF
Experiment: LULL1 binders on small-molecule microarray, primary screen, cell lysate, human LULL1 lysate, 635/667 nm fluorescence (AID 1092);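 also: probe is lysate of COS7 cells overexpressing human LULL1; score merges per-feature 667 nm fluorescence with signal-to-noise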
Conditions: hLULL1 lysate binding, 635 nm fluorescence, higher = more signal
readout type: composite z-score
Just the number, please, no unit after it.

compound: CCOC(=O)C[C@H]1[C@H](OC(=O)c2cc3ccccc3oc2=O)[C@@H](NC(=O)c2ccc(-c3ccccc3)cc2)c2cc(OCCCO)ccc2N1C(=O)c1ccccc1
composite z-score: 1.21
//
compound: CN1C(=O)C2C=CC(C(O)c3ccccn3)N(N(c3ccccc3)c3ccccc3)C2C1=O (centres undefined)
composite z-score: 1.87
//
compound: COc1ccc(NC(=O)O[C@H]2[C@H](OC(=O)Nc3ccccc3)[C@@H](OC(=O)Nc3ccccc3)[C@@H](OC)O[C@@H]2CO)cc1
composite z-score: 3.27

# next compound below
Query composite z-score on Torsin-1A-interacting protein 2 (Homo sapiens) (UniProt Q8NFQ8) for `COc1ccc([Si](C)(C)[C@@H]2[C@@H](CC(=O)N3Cc4ccccc4C[C@H]3CO)O[C@]3(C(=O)N(C)c4ccccc43)[C@H]2C)cc1`
1.83

----------
Target: Follistatin (Homo sapiens) (UniProt P19883)
Sequence (P19883 whole entry, looked up): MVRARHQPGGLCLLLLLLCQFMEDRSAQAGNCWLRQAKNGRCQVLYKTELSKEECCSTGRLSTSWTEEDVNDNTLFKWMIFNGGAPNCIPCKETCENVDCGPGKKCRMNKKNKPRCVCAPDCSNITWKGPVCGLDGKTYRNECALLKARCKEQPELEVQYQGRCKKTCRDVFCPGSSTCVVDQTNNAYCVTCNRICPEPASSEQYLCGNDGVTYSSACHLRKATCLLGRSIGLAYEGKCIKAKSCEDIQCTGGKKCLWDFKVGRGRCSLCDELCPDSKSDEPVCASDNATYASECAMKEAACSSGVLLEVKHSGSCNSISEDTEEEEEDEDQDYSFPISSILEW
Test: follistatin binders on small-molecule microarrays, primary screen, biochemical, small-molecule microarray, 635/667 nm fluorescence (AID 1132)
Conditions: FST binding, 635 nm fluorescence, higher = more signal
Consider the following compounds and their measured composite z-score readings.
Just the number, please, no unit after it.

These recorded examples may help you get a feel for the data.
compound: O=C1C2C=CC(C(O)c3ccc(Br)cc3)N(Nc3ccccc3F)C2C(=O)N1c1ccccc1 (centres undefined)
composite z-score: 0.0288
//
compound: O=C1c2ccccc2[C@](Cc2ccccc2I)(C(=O)NCC(F)(F)F)[C@H](c2ccc(CO)cc2)N1C1CCCCC1
composite z-score: 0.846
//
compound: COCCOC(=O)N1C(=O)[C@@]2(c3cc(C#CC4=CCCCC4)ccc31)[C@H](c1ccccc1OCCO)N1[C@H](c3ccccc3)[C@H](c3ccccc3)OC(=O)[C@H]1[C@@H]2C(=O)N1CCCCCCC1
composite z-score: 1.24
//
compound: O=C1OCCC/C=C\[C@H]2OC34C=CCN(CCN5CCOCC5)C(=O)[C@H]3N(CCCCCCO)C(=O)[C@@H]4C12 (some centres undefined)
composite z-score: -0.318
//
compound: COc1ccc(CCNC(=O)[C@@]2(Sc3ccc(C)cc3)CC(=O)N(C3Cc4ccccc4C3)[C@@H]2c2ccc(CO)cc2)cc1
composite z-score: 1.65

Quick one: composite z-score of `O=C(N1CCCCC1)[C@@]1(CCS(=O)(=O)c2ccccc2)COC(c2ccc(OCCCO)cc2)=N1` ?
1.4

Quick one: composite z-score of `O=C1O[C@H](c2ccccc2)[C@H](c2ccccc2)N2[C@H]1[C@@H](C(=O)N1CCN(c3ncccn3)CC1)[C@]1(C(=O)Nc3ccc(C#CC4(O)CCCCCC4)cc31)[C@H]2c1ccc(OCCO)cc1` ?
1.27

Quick one: composite z-score of CC(CO)N1C(=O)[C@@H]2[C@H]3C(=O)OCC=C[C@H]3OC23C=CCN(CCN2CCOCC2)C(=O)[C@@H]13 (some centres undefined) ?
0.207

Quick one: composite z-score of `COCCOC(=O)N1C(=O)[C@@]2(c3cc(C#CC4=CCCCC4)ccc31)[C@H](c1ccc(OCCO)cc1)N1[C@H](c3ccccc3)[C@H](c3ccccc3)OC(=O)[C@H]1[C@@H]2C(=O)NC[C@H](O)c1ccccc1` ?
1.48

Quick one: composite z-score of `COCCOC(=O)N1C(=O)[C@@]2(c3cc(C#Cc4ccc(OC)cc4)ccc31)[C@H](C(=O)Nc1nc3ccccc3s1)[C@H]1C(=O)O[C@H](c3ccccc3)[C@H](c3ccccc3)N1[C@@H]2c1ccc(OCCO)cc1` ?
1.17
